# tested target: UniProt:P15056
# Sequence (P15056 whole entry, looked up): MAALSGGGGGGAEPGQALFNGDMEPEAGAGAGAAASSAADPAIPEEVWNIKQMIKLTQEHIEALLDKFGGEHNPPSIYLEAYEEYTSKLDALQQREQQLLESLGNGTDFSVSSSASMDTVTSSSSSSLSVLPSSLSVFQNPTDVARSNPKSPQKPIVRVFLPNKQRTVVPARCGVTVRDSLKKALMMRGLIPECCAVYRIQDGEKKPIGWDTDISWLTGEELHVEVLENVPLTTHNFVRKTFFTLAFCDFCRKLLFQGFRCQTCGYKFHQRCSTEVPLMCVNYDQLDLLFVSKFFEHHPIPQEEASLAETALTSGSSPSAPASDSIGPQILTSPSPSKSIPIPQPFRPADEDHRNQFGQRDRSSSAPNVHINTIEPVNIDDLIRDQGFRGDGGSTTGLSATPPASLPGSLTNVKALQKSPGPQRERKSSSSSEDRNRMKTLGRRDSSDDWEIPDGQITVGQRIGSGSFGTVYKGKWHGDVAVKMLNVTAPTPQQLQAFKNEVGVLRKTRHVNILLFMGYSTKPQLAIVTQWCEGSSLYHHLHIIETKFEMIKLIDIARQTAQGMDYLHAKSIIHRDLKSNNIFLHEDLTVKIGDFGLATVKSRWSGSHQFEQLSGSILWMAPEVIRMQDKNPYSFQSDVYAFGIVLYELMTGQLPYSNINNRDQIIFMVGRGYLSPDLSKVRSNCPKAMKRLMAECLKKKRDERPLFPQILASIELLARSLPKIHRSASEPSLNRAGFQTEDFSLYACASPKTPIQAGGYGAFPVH
# experiment summary: KINOMEscan competition binding
# recorded conditions: compound 10.0 µM
attribute measured: kinase still bound, per cent of control (%)

>>> reported_measurement("COc1ccc(N(C(=O)Oc2c(C)cccc2C)c2ccnc(Nc3ccc(N4CCN(C)CC4)cc3)n2)c(OC)c1")
88
>>> reported_measurement("CS(=O)(=O)N1CCN(Cc2cc3nc(-c4cccc5[nH]ncc45)nc(N4CCOCC4)c3s2)CC1")
100
>>> reported_measurement("CCN1CCN(C(=O)Cc2ccc(Nc3ncc(F)c(Nc4ccc(C(=O)Nc5ccccc5Cl)cc4)n3)cc2)CC1")
70
>>> reported_measurement("C=CC(=O)Nc1ccc(CN(C(=O)Nc2c(Cl)c(OC)cc(OC)c2Cl)c2cc(Nc3ccc(N4CCN(C)CC4)cc3)ncn2)cc1")
100

====

# tested target: DAPK3 (human) (UniProt O43293)
# Sequence (O43293 whole entry, looked up): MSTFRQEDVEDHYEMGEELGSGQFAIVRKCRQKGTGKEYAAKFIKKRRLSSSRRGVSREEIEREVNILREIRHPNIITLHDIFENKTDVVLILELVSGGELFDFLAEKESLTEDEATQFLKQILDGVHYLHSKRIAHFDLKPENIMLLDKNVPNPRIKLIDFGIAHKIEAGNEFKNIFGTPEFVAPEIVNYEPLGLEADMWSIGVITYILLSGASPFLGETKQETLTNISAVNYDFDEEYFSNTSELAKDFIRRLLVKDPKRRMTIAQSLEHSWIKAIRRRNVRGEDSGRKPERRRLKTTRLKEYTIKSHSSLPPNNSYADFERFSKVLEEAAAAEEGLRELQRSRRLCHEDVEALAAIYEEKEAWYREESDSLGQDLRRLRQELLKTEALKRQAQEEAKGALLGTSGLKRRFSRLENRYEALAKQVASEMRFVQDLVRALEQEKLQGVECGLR
# experiment summary: KINOMEscan competition binding
# recorded conditions: compound 10.0 µM
Criterion: kinase still bound, per cent of control strictly under 60%. Met: label 1. Not met: label 0.

>>> assigned_category("CN(C)C/C=C/C(=O)Nc1ccc(C(=O)Nc2cccc(Nc3nccc(-c4cccnc4)n3)c2)cc1")
"label 0"
>>> assigned_category("N#CCNC(=O)c1ccc(-c2ccnc(Nc3ccc(N4CCOCC4)cc3)n2)cc1")
"label 1"
>>> assigned_category("O=c1cc(N2CCOCC2)oc2c(-c3cccc4c3sc3ccccc34)cccc12")
"label 0"
>>> assigned_category("COCC(=O)NC/C=C/c1ccc2ncnc(Nc3ccc(Oc4ccc(C)nc4)c(C)c3)c2c1")
"label 0"
>>> assigned_category("CNC(=O)c1ccc(Nc2cc(Nc3ccccc3S(=O)(=O)C(C)C)c3cc[nH]c3n2)nc1")
"label 0"
>>> assigned_category("C[C@@H](Oc1cc(-c2cnn(C3CCNCC3)c2)cnc1N)c1c(Cl)ccc(F)c1Cl")
"label 0"
>>> assigned_category("NC(=O)Nc1cc(-c2cccc(F)c2)sc1C(=O)N[C@@H]1CCCNC1")
"label 1"
>>> assigned_category("C=CC(=O)Nc1ccc(CN(C(=O)Nc2c(Cl)c(OC)cc(OC)c2Cl)c2cc(Nc3ccc(N4CCN(C)CC4)cc3)ncn2)cc1")
"label 0"
>>> assigned_category("COc1cc2ncnc(-n3nc(-c4ccccn4)nc3N)c2cc1OC")
"label 1"
>>> assigned_category("COc1cc(N2CCN(C)CC2)ccc1Nc1ncc2c(n1)N(C)c1ccccc1C(=O)N2C")
"label 0"
>>> assigned_category("O=C1NC(=O)/C(=C/c2ccc3nccc(-c4ccncc4)c3c2)S1")
"label 1"
>>> assigned_category("CCN(CC)CCCCNc1ncc2cc(-c3cc(OC)cc(OC)c3)c(NC(=O)NC(C)(C)C)nc2n1")
"label 0"
>>> assigned_category("COc1cc(C(=O)N2CCC(N3CCN(C)CC3)CC2)ccc1Nc1ncc2c(n1)N(C)c1ccccc1C(=O)N2C")
"label 0"
>>> assigned_category("CS(=O)(=O)N1CCN(Cc2cc3nc(-c4cccc5[nH]ncc45)nc(N4CCOCC4)c3s2)CC1")
"label 0"
>>> assigned_category("COc1ccc(N(C(=O)Oc2c(C)cccc2C)c2ccnc(Nc3ccc(N4CCN(C)CC4)cc3)n2)c(OC)c1")
"label 0"
>>> assigned_category("O=C(Nc1cccc(Nc2ncc(Br)c(NCCc3cnc[nH]3)n2)c1)N1CCCC1")
"label 1"
